Reference source for all entries: ChEMBL document CHEMBL3046640

- Test system: Pseudomonas aeruginosa
- Assay Overview: Antibacterial activity against Pseudomonas aeruginosa ATCC 27853 assessed as growth inhibition after 24 hr by broth dilution method
- Format: functional
Calls of active or inactive are those of the source. The calls are words filed in the database; no cut-off is given here.
Readout Kind: MIC

- Compound Structure String: "COc1ccc(/C=C/C(=O)c2cc(C(=O)/C=C/c3ccc(OC)c(OC)c3)c(OC)cc2OC)cc1OC"
  Recorded Measurement: "inactive"
- Compound Structure String: "CC(=O)c1cc(C(C)=O)c(OC(=O)c2cccc(Cl)c2)cc1OC(=O)c1cccc(Cl)c1"
  Recorded Measurement: "inactive"
- Compound Structure String: "CC(=O)c1cc(C(C)=O)c(OC(=O)c2ccccc2C)cc1OC(=O)c1ccccc1C"
  Recorded Measurement: "inactive"
- Compound Structure String: "CC(=O)c1cc(C(C)=O)c(OC(=O)c2ccc(Cl)cc2)cc1OC(=O)c1ccc(Cl)cc1"
  Recorded Measurement: "inactive"

Now consider a different compound.
MIC reading for `COc1cccc(/C=C/C(=O)c2cc(C(=O)/C=C/c3cccc(OC)c3)c(OC)cc2OC)c1` : inactive
